Entry source: ChEMBL document CHEMBL5260832

assay: Hepatotoxicity in rat assessed as reduction in GPT level at 1.0 mg/mL measured after 48 hrs (reference value: 291 IU/L); assay type: toxicity; conditions: in vivo
Measured Activity, listed per entry for reference.
Numbers only here, please. The scale is IU/L.

- CC1(C)CC[C@]2(C(=O)O[C@@H]3O[C@H](CO[C@@H]4O[C@H](CO)[C@@H](O)[C@H](O)[C@H]4O)[C@@H](O)[C@H](O[C@@H]4O[C@H](CO)[C@@H](O)[C@H](O)[C@H]4O)[C@H]3O)CC[C@]3(C)C(=CC[C@@H]4[C@@]5(C)CC[C@H](O[C@@H]6O[C@H](CO)[C@@H](O)[C@H](O)[C@H]6O)[C@@](C)(C(=O)O)[C@@H]5CC[C@]43C)[C@@H]2C1: 279
- C[C@@]1(CO)CC[C@]2(C(=O)O[C@@H]3O[C@H](CO)[C@@H](O)[C@H](O)[C@H]3O)CC[C@]3(C)C(=CC[C@@H]4[C@@]5(C)CC[C@H](O)[C@@](C)(C(=O)O)[C@@H]5CC[C@]43C)[C@@H]2C1: 206
- CC1(C)CC[C@]2(C(=O)O[C@@H]3O[C@H](CO[C@@H]4O[C@H](CO)[C@@H](O)[C@H](O)[C@H]4O)[C@@H](O)[C@H](O[C@@H]4O[C@H](CO)[C@@H](O)[C@H](O)[C@H]4O)[C@H]3O)CC[C@]3(C)C(=CC[C@@H]4[C@@]5(C)CC[C@H](O)[C@@](C)(C(=O)O)[C@@H]5CC[C@]43C)[C@@H]2C1: 279
- CC1(C)CC[C@]2(C(=O)O[C@@H]3O[C@H](CO)[C@@H](O)[C@H](O)[C@H]3O)CC[C@]3(C)C(=CC[C@@H]4[C@@]5(C)CC[C@H](O[C@@H]6O[C@H](CO)[C@@H](O)[C@H](O)[C@H]6O)C(C)(C(=O)O)[C@@H]5CC[C@]43C)[C@@H]2C1 (stereo partly specified): 279
- CC1(C)CC[C@]2(C(=O)O[C@@H]3O[C@H](CO[C@@H]4O[C@H](CO)[C@@H](O)[C@H](O)[C@H]4O)[C@@H](O)[C@H](O)[C@H]3O)CC[C@]3(C)C(=CC[C@@H]4[C@@]5(C)CC[C@H](O[C@@H]6O[C@H](CO)[C@@H](O)[C@H](O)[C@H]6O)[C@@](C)(C(=O)O)[C@@H]5CC[C@]43C)[C@@H]2C1: 279

# context switch: different compound, same Activity
What value of Activity has been recorded for this entry: `CC1(C)CC[C@]2(C(=O)O[C@@H]3O[C@H](CO)[C@@H](O)[C@H](O)[C@H]3O)CC[C@]3(C)C(=CC[C@@H]4[C@@]5(C)CC[C@H](O)[C@@](C)(C(=O)O)[C@@H]5CC[C@]43C)[C@@H]2C1` 137
